Values compiled from patent US12435087B2.

# study system: DCN1 (DCUND1) protein PONY domain (Homo sapiens (Human), UniProt Q96GG9)
# Sequence (Q96GG9 60-248): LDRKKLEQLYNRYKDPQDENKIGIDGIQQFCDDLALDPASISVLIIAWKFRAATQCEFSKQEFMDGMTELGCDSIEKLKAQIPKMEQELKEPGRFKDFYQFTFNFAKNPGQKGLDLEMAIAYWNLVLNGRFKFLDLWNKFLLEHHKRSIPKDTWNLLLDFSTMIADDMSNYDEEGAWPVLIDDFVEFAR
# assay remarks: TR-FRET assay (binding to DCN-1, displacement of FAM-labeled probe)
# condition info: 24 hr after treatment with compound; read-out: TR FRET IC50 24 hr
Assignment: determine reported IC50 for the given compounds.

Please report IC50 for every entry that follows.
1. C=C(C(=O)NCc1cccc([C@@H]2c3cnn(-c4ccccc4)c3N(CC)C(=O)[C@H]2NC(=O)c2nccc(C(F)(F)F)n2)c1)C(C)N1CC2CC(C1)O2 (stereo partly shown)
2. C/C=C(/C(=O)Nc1cccc([C@@H]2c3cnn(-c4ccccc4)c3N(CC)C(=O)[C@H]2NC(=O)c2nccc(C(F)(F)F)n2)c1)C(C)N1CCC1 (stereo partly shown)
3. CCN1C(=O)[C@@H](NC(=O)c2cccc(C(F)(F)F)c2)[C@H](c2cccc(CNC(=O)C(F)Cl)c2)c2cnn(-c3ccccc3)c21 (mixture of isomers)
4. CCN1C(=O)[C@@H](NC(=O)c2cccc(C(F)(F)F)c2)[C@H](c2cncc(NC(=O)/C=C/CN(C)C)c2)c2cnn(-c3ccccc3)c21
5. C=C(CN1CCOCC1)C(=O)NCc1cccc([C@@H]2c3c(C)nn(-c4ccccc4)c3N(CC)C(=O)[C@H]2NC(=O)c2cccc(C(F)(F)F)c2)c1
6. C=C(CN(C)C1COC1)C(=O)NCc1cccc([C@H]2c3c(C)nn(-c4ccccc4)c3N(CC)C(=O)[C@@H]2NC(=O)c2cccc(C(F)(F)F)c2)c1
7. C/C=C(\CN1CCN(C2COC2)CC1)C(=O)Nc1cccc([C@@H]2c3cnn(-c4ccccc4)c3N(CC)C(=O)[C@H]2NC(=O)c2csc(C(F)(F)F)n2)c1

["≤ 200 nM", "1000 to 3000 nM", "1000 to 3000 nM", "200 to 1000 nM", "≤ 200 nM", "200 to 1000 nM", "≤ 200 nM"]

* * *

# study system: UniProtKB Q96GG9
# assay remarks: Intact protein MS analysis with the RapidFire-TOF system (covalent adduct formation)
# Assay type: binding
# condition info: 400 nM DCN1, incubated at room temperature for 3 hours
# Method: DCN1 protein, His-TEV-DCN1, were expressed in E. Coli. The His-tagged protein was first purified with an Ni-NTA column. The His-tag was cleaved using His-tag TEV protease and the His-tags were removed using a second Ni-NTA column. Protein purity was verified with SDS-PAGE and intact MS. […] Quenched assay plates were analyzed with an Agilent RapidFire 360 system connected to an Agilent 6545 Q-TOF mass spectrometer equipped with an AJS source. […]
Assignment: determine reported Emax for the given compounds.

CCN1C(=O)[C@@H](NC(=O)c2cccc(C(F)(F)F)c2)[C@@H](c2cccc(NC(=O)[C@H](C)Cl)c2)c2c(C)nn(-c3ccccc3)c21 (mixture of isomers) | 0 to 30%
C=C(CN1CCN(C2COC2)CC1)C(=O)NCc1cccc([C@@H]2c3cnn(-c4ccccc4)c3N(CC)C(=O)[C@H]2NC(=O)c2cccc(C(F)(F)F)c2)n1 | 80 to 100%
C=C(C)C(=O)Nc1ccccc1[C@H]1c2cnn(-c3ccccc3)c2N(CC)C(=O)[C@@H]1NC(=O)c1cccc(C(F)(F)F)c1 (racemic) | 0 to 30%
C/C=C(\CN1CCN(C2COC2)CC1)C(=O)NCc1cccc([C@@H]2c3cnn(-c4ccccc4)c3N(CC)C(=O)[C@H]2NC(=O)c2cccc(C(F)(F)F)c2)c1 | 80 to 100%

Shifting focus to the compound that follows.
Any idea what Emax came out for C=CS(=O)(=O)Nc1ccccc1[C@H]1c2cnn(-c3ccccc3)c2N(CC)C(=O)[C@@H]1NC(=O)c1cccc(C(F)(F)F)c1 (racemic) on UniProtKB Q96GG9? 80 to 100%

* * *

Assignment: determine reported IC50 for the given compounds.
# study system: DCN1 (DCUND1) protein PONY domain (Homo sapiens (Human))
# assay remarks: TR-FRET assay (binding to DCN-1, displacement of FAM-labeled probe)
# condition info: TR FRET IC50 1 hr (nM), 1 hr after treatment with compound

C=C(CN1CCOCC1)C(=O)N[C@H](C)c1cccc([C@@H]2c3cnn(-c4ccccc4)c3N(CC)C(=O)[C@H]2NC(=O)c2nccc(C(F)(F)F)n2)c1 (mixture of isomers) | 1000 to 3000 nM
CCN1C(=O)[C@H](NC(=O)c2cccc(C(F)(F)F)c2)[C@@H](c2ccccc2NC(=O)CCl)c2c(C)nn(-c3ccccc3)c21 | 1000 to 3000 nM

Please report IC50 for every entry that follows.
1. CCN1C(=O)[C@@H](NC(=O)c2cccc(C(F)(F)F)c2)[C@H](c2cccc(NC(=O)/C=C/CN(C)C)n2)c2cnn(-c3ccccc3)c21
2. C=C(CN(C)C1COC1)C(=O)N(C)Cc1cccc([C@@H]2c3cnn(-c4ccccc4)c3N(CC)C(=O)[C@H]2NC(=O)c2nccc(C(F)(F)F)n2)c1

1. 200 to 1000 nM
2. 1000 to 3000 nM

Please report IC50 for every entry that follows.
1. CCN1C(=O)[C@@H](NC(=O)c2nccc(C(F)(F)F)n2)[C@H](c2ccccc2/C=C\C#N)c2cnn(-c3ccccc3)c21 (racemic)
2. CCN1C(=O)[C@H](NC(=O)c2cccc(C(F)(F)F)c2)[C@@H](c2cccc(N(C)C(=O)C3=CCC3)c2)c2cnn(-c3ccccc3)c21
3. C=CC(=O)NCc1cccc([C@@H]2c3cnn(-c4ccccc4)c3N(CC)C(=O)[C@H]2NC(=O)c2cccc(C(F)(F)F)c2)c1 (racemic)
4. C/C=C(\CN(C)C1COC1)C(=O)NCc1cccc([C@@H]2c3cnn(-c4ccccc4)c3N(CC)C(=O)[C@H]2NC(=O)c2nccc(C(F)(F)F)n2)c1
5. C=C(CN1CCOCC1)C(=O)NCc1cccc([C@@H]2c3cnn(-c4ccccc4)c3N(CC)C(=O)[C@H]2NC(=O)c2ccn(CC(F)(F)F)n2)c1

1: 1000 to 3000 nM; 2: 1000 to 3000 nM; 3: 1000 to 3000 nM; 4: 1000 to 3000 nM; 5: 200 to 1000 nM

Please report IC50 for every entry that follows.
1. C/C=C(\CN1CCN(C2COC2)CC1)C(=O)N(C)Cc1cccc([C@@H]2c3cnn(-c4ccccc4)c3N(CC)C(=O)[C@H]2NC(=O)c2ccn(C(F)(F)F)n2)c1
2. CCN1C(=O)[C@@H](NC(=O)c2cccc(C(F)(F)F)c2)[C@@H](c2cc(NC(=O)/C=C/CN(C)C)ccc2F)c2cnn(-c3ccccc3)c21 (racemic)

["1000 to 3000 nM", "1000 to 3000 nM"]

* * *

# study system: DCN1 (DCUND1) protein PONY domain (Homo sapiens (Human))
# assay remarks: TR-FRET assay (binding to DCN-1, displacement of FAM-labeled probe)
# condition info: TR FRET IC50 1 hr (nM), 1 hr after treatment with compound
readout kind: IC50

CCN1C(=O)[C@@H](NC(=O)c2cccc(C(F)(F)F)c2)[C@H](c2cccc(CNC#N)c2)c2cnn(-c3ccccc3)c21 (racemic) | 1000 to 3000 nM

Please report IC50 for every entry that follows.
1. C=C(CN1CCOCC1)C(=O)NCc1cccc([C@H]2c3cnn(-c4ccccc4)c3N(CC)C(=O)[C@@H]2NC(=O)c2nccc(C(F)(F)F)n2)c1
2. CCN1C(=O)[C@H](NC(=O)c2cccc(C(F)(F)F)c2)[C@@H](c2ccccc2-n2sccc2=O)c2cnn(-c3ccccc3)c21 (racemic)

1: 1000 to 3000 nM; 2: 1000 to 3000 nM

Please report IC50 for every entry that follows.
1. CCN1C(=O)[C@H](NC(=O)c2cccc(C(F)(F)F)c2)[C@@H](c2ccccc2NC(C)=O)c2cnn(-c3ccccc3)c21 (racemic)
2. C=C(CN1CCOCC1)C(=O)N[C@@H](C)c1cccc([C@@H]2c3cnn(-c4ccccc4)c3N(CC)C(=O)[C@H]2NC(=O)c2nccc(C(F)(F)F)n2)c1
3. C=CC(=O)Nc1cccc([C@H]2c3c(C)nn(-c4ccccc4)c3N(CC)C(=O)[C@H]2NC(=O)c2cccc(C(F)(F)F)c2)c1 (racemic)

["> 3000 nM", "1000 to 3000 nM", "> 3000 nM"]

* * *

# study system: DCN1 (DCUND1) protein PONY domain (Homo sapiens (Human), UniProt Q96GG9)
# assay remarks: TR-FRET assay (binding to DCN-1, displacement of FAM-labeled probe)
# condition info: TR FRET IC50 1 hr (nM), 1 hr after treatment with compound
# Description: The TR-FRET assay was designed following the Scott et al. protocol (Scott et al., Nat Chem Biol. 2017 August; 13(8): 850-857. doi:10.1038/nchembio.2386). […] The TR-FRET ratio between Tb-DCN1 and the FAM-labeled probe was measured in a 384-well opti-plate (Perkin Elmer) using a plate reader (BMG) at 1, 5, and 24 hrs after treatment with compound (final DMSO concentration of 0.1%). […]
readout kind: IC50

Guide cases for IC50, answers given:
C/C=C(\CN1CCN(C2COC2)CC1)C(=O)Nc1cccc([C@@H]2c3cnn(-c4ccccc4)c3N(CC)C(=O)[C@H]2NC(=O)c2csc(C(F)(F)F)n2)c1 [Compound I-234] | ≤ 200 nM
C=C(CN1CC2CC(C1)O2)C(=O)N(C)Cc1cccc([C@@H]2c3cnn(-c4ccccc4)c3N(CC)C(=O)[C@H]2NC(=O)c2ccn(C3CC3)n2)c1 [Compound I-258] | 1000 to 3000 nM
CCN1C(=O)[C@@H](NC(=O)c2cccc(C(F)(F)F)c2)[C@H](c2cc(NC(=O)/C=C/CN(C)C)ccc2F)c2cnn(-c3ccccc3)c21 (racemic) [Compound I-79] | 1000 to 3000 nM
CCN1C(=O)[C@@H](NC(=O)c2nccc(C(F)(F)F)n2)[C@H](c2cccc(NC(=O)/C=C/CN(C)C)n2)c2cnn(-c3ccccc3)c21 (racemic) [Compound I-265] | 200 to 1000 nM
CCN1C(=O)[C@@H](NC(=O)c2cccc(C(F)(F)F)c2)[C@@H](c2cccc(NC#N)c2)c2c(C)nn(-c3ccccc3)c21 (racemic) [Compound I-22] | > 3000 nM

Requested read-out: IC50. Entry: CC#CC(=O)Nc1cccc([C@H]2c3c(C)nn(-c4ccccc4)c3N(CC)C(=O)[C@H]2NC(=O)c2cccc(C(F)(F)F)c2)c1 (racemic) [Compound I-19] > 3000 nM
